molecular target: c-Src SH2; test: SH2 binding enrichment of the phosphorylated peptide, bacterial display (enrichment ratio); higher = better substrate or ligand; peptides without Tyr show the background;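 also: peptide library displayed on the E. coli surface as eCPX fusions, selected cells deep-sequenced, score is each peptide's frequency after selection divided by its frequency in the input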
endpoint-name: SH2 binding enrichment

The following sequences have reported results that may help.
>  <item-sequence>
DVVKDYAFVHM [RBM14_Y114]

>  <endpoint-name>
SH2 binding enrichment

>  <measured-result>
0.472

$$$$
>  <item-sequence>
VFGVSYDEFRF [CFTR_Y512_I507V_YF]

>  <endpoint-name>
SH2 binding enrichment

>  <measured-result>
0.859

$$$$
>  <item-sequence>
ILTFKYLQKPM [KIT_Y547_YF]

>  <endpoint-name>
SH2 binding enrichment

>  <measured-result>
0.449

$$$$
>  <item-sequence>
GAEIVYKSPVV [MAPT_Y711]

>  <endpoint-name>
SH2 binding enrichment

>  <measured-result>
0.418

$$$$
>  <item-sequence>
MKGDFYRSLAE [YWHAG_Y131_Y133S_YF]

>  <endpoint-name>
SH2 binding enrichment

>  <measured-result>
0.352

$$$$

(P) GQLIFYAPPEW [CNTN6_Y315]
(Q) DKTGEYPVPLT [ACADM_Y73_I78T]
(R) CTTIHYNFMCK [TP53_Y234_N239K_YF]
(S) EVRTQYEEIAQ [KRT76_Y361_A359T]
Input line: Thanks in advance: please rank these 4 entries by SH2 binding enrichment, highest to lowest. // rank by listing labels in the order requested
Output line: S, R, P, Q
(S: 20.6, R: 1.68, P: 0.781, Q: 0.474)

(P) KGEDFYCVTCP [FHL1_Y149_H154P]
(Q) LKEIRYPPYTD [ALDH3B2_Y362_H361R]
(R) AGTILSHAHLD [ASS1_Y291_Y291S]
Input line: Sort ascending by SH2 binding enrichment. // rank by listing labels in the order requested
Output line: R, Q, P
